molecular target: 14-3-3β/CFTRpS753pS768 complex (Homo sapiens, UniProt P13569+P31946); construct: His6 (cleaved yes); made in house; peptide synthetic; assay: Dose-response fluorescence polarization (FP) assay, compound titration; format: binding; conditions: With 14-3-3; compound 9.76563e-7 M
Sequence (P31946 whole entry): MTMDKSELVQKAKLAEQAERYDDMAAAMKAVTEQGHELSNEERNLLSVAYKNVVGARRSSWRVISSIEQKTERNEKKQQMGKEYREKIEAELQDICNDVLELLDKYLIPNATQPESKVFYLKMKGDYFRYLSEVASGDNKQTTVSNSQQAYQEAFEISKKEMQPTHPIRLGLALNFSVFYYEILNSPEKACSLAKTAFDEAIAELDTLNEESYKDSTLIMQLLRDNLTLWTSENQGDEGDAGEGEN
Sequence (P13569 747-774 limits assumed): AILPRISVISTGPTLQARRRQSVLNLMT
QUANTITY_NAME: FP signal
I only need the number, thanks.

Field: example entries. Status: answers known.
In [3]: df
Out[3]:
                                   compound  recorded_measurement
0  N=C(N)NCCCC1NC(=O)C(CCCCN)NCc2ccccc2Sc2ccccc2CNC(=O)C(Cc2ccc(O)cc2)NC1=O (stereo not drawn)                     6
1  N=C(N)NCCCC1NC(=O)C(CCC(N)=O)NC(=O)C(CCCNC(=N)N)NC(=O)C2CCCN2Cc2cccc(c2)-c2ccccc2CNC1=O (stereo not drawn) [CY007455]                     4

# context switch: different compound, same FP signal
Entry N=C(N)NCCCC1NC(=O)C(CCC(N)=O)NC(=O)C(CCCNC(=N)N)NC(=O)C2CCCN2Cc2cccc(c2)-c2ccccc2CNC1=O (stereo not drawn) [CY007458] , FP signal reported as 6

----------
target: 14-3-3β/CFTRpS753pS768 complex (Homo sapiens, UniProt P13569+P31946); construct: His6 (cleaved yes); made in house; peptide synthetic; assay: Dose-response fluorescence polarization (FP) assay, compound titration; type: binding; settings: With 14-3-3; compound 6.10352e-8 M
QUANTITY_NAME: FP signal
I only need the number, thanks.

Field: example entries. Status: answers known.
MOLECULE	TGT	QUANTITY_NAME	RECORDED_MEASUREMENT
N=C(N)NCCCC1NCc2ccccc2Sc2ccccc2CNC(=O)C(Cc2ccc(O)cc2)NC(=O)C(CCCN)NC1=O (centres unmarked)	14-3-3β/CFTRpS753pS768 complex (Homo sapiens, UniProt P13569+P31946)	FP signal	5
N=C(N)NCCCC1NC(=O)C(CCC(N)=O)NC(=O)C(CCCNC(=N)N)NC(=O)C2CCCN2Cc2cccc(c2)-c2ccccc2CNC1=O (centres unmarked) [CY007455]	14-3-3β/CFTRpS753pS768 complex (Homo sapiens, UniProt P13569+P31946)	FP signal	5

Entry CN1CC(=O)NC(CCCNC(=N)N)C(=O)NC(CCC(N)=O)C(=O)NC(CCCNC(=N)N)C(=O)NCc2ccccc2-c2cccc(c2)C1 (centres unmarked) , FP signal reported as 5

Entry C=CC(C)(C)OC[C@H]1O[C@H](O[C@@H]2C3=C([C@H](C)COC(C)=O)C[C@H](O)[C@]3(C)/C=C3/[C@@H](COC)CC[C@H]3[C@@H](C)[C@H]2O)[C@H](O)[C@@H](OC(C)=O)[C@@H]1O [FC-A, fusicoccin A, reference compound] , FP signal reported as 1

Entry N=C(N)NCCCC1NC(=O)C(CCC(N)=O)NC(=O)C(CCCNC(=N)N)NC(=O)C2CCCN2Cc2cccc(c2)-c2ccccc2CNC1=O (centres unmarked) [CY007458] , FP signal reported as 5

----------
Target: FITC-labeled CFTRpS753pS768 peptide (no 14-3-3) (Homo sapiens)
Construct: made in house; host or cells: synthetic peptide
Experiment: Dose-response FP control assay in the absence of 14-3-3
Type: binding
Details: No 14-3-3; compound 4.88281e-7 M
Procedure: The 14-3-3β concentration used for the FP screening assay was 10 μM (dashed line). c HTS FP assay of the Cyclenium library. The samples contain 100 nM of FITC-CFTR_pS753pS768 peptide, 10 μM 14-3-3β, and 50 μM compound. FC-A (100 µM) was added as a positive control and DMSO as the negative control. Hit compounds are defined as a polarization increase which is higher than 20% of the response of FC-A. Red squares are compounds that appeared positive in the negative control without 14-3-3. […]
QUANTITY_NAME: FP signal

Entry N=C(N)NCCCC1NCc2ccccc2Sc2ccccc2CNC(=O)C(Cc2ccc(O)cc2)NC(=O)C(CCCN)NC1=O (stereo not drawn) [CY007424] , FP signal reported as 7

Entry N=C(N)NCCCC1NC(=O)C(CCC(N)=O)NC(=O)C(CCCNC(=N)N)NC(=O)C2CCCN2Cc2cccc(c2)-c2ccccc2CNC1=O (stereo not drawn) [CY007458] , FP signal reported as 6

Entry N=C(N)NCCCC1NC(=O)C(CCCCN)NCc2ccccc2Sc2ccccc2CNC(=O)C(Cc2ccc(O)cc2)NC1=O (stereo not drawn) [CY001951] , FP signal reported as 5

Entry NCCCC1NCc2ccccc2Sc2ccccc2CNC(=O)C(Cc2c[nH]c3ccccc23)NC(=O)C(Cc2ccccc2)NC1=O (stereo not drawn) [CY007345] , FP signal reported as 6

Entry C=CC(C)(C)OC[C@H]1O[C@H](O[C@@H]2C3=C([C@H](C)COC(C)=O)C[C@H](O)[C@]3(C)/C=C3/[C@@H](COC)CC[C@H]3[C@@H](C)[C@H]2O)[C@H](O)[C@@H](OC(C)=O)[C@@H]1O [FC-A, fusicoccin A, reference compound] , FP signal reported as 4

Entry NCCCCC1NCc2ccccc2Sc2ccccc2CNC(=O)C(Cc2cccc(Cl)c2)NC(=O)C(Cc2ccc(O)cc2)NC1=O (stereo not drawn) [CY007288] , FP signal reported as 6
